The following compounds are shown together with reported melting point values.

[
  {
    "molecule_smiles": "N#Cc1cnc(SCCCN2c3ccccc3Sc3ccc(C(F)(F)F)cc32)nc1N",
    "melting point": "164 to 166 °C"
  },
  {
    "molecule_smiles": "N#Cc1cnc(SCCCN2c3ccccc3Sc3ccc(Cl)cc32)nc1N",
    "melting point": "138 to 140 °C"
  },
  {
    "molecule_smiles": "O=C(CSc1nnc(-c2ccncc2)o1)N1c2ccccc2Sc2ccc(Cl)cc21",
    "melting point": "194 to 196 °C"
  },
  {
    "molecule_smiles": "CCOC(=O)c1cnc(SCCCN2c3ccccc3Sc3ccc(Cl)cc32)nc1N",
    "melting point": "120 to 122 °C"
  },
  {
    "molecule_smiles": "CCOC(=O)c1cnc(SCCCN2c3ccccc3Sc3ccc(C(F)(F)F)cc32)nc1N",
    "melting point": "118 to 120 °C"
  },
  {
    "molecule_smiles": "CCOC(=O)c1cnc(SCC(=O)N2c3ccccc3Sc3ccc(Cl)cc32)nc1N",
    "melting point": "156 to 158 °C"
  }
]
